Tested on: HCC1599
EXPERIMENT DESCRIPTION: normalised response (% of control), CellTox Green; higher = less cell death (100 = DMSO, 0 = benzethonium chloride kill control)
CONDITIONS USED: incubation time: 72 h
PARAMETER: normalised response (%)
Respond with the bare value in %.

COc1cc2ncnc(Nc3ccc(F)c(Cl)c3)c2cc1OCCCN1CCOCC1 [Gefitinib] (10000 nM) ... 96.9
COC(=O)c1ccc2c(c1)NC(=O)/C2=C(\Nc1ccc(N(C)C(=O)CN2CCN(C)CC2)cc1)c1ccccc1 [Nintedanib] (100 nM) ... 95.1
C=C1C[C@@H]2[C@H](CC[C@]3(C)C(=O)CC[C@@H]23)[C@@]2(C)C=CC(=O)C=C12 [Exemestane] (100 nM) ... 112
COc1cc(O)c2c(c1)/C=C/C[C@H](O)[C@H](O)C(=O)/C=C\C[C@H](C)OC2=O [(5Z)-7-Oxozeaenol] (1000 nM) ... 103
CNC(=O)c1ccc(N2C(=S)N(c3ccc(C#N)c(C(F)(F)F)c3)C(=O)C2(C)C)cc1F [Enzalutamide] (100 nM) ... 103

Lookup: Field: normalised response (HCC1599). Entry: NC(=O)c1ccc(I)c([N+](=O)[O-])c1 [Iniparib] (100 nM)
Found: 83.9

---

Test system: CAL-148
EXPERIMENT DESCRIPTION: drug sensitivity score (DSS), CellTiter-Blue viability (DSS (AUC-based score)); higher = stronger viability inhibition; extreme values may be limits of the assay
CONDITIONS USED: incubation time: 72 h
Listed here are molecules together with their documented drug sensitivity score.
The answer should be a number; do not append a unit.

For orientation, consider the following solved cases.
c1ccc2c(CCNc3ccc(Nc4ccncc4)cc3)c[nH]c2c1 ... 4.36
O=P1(N(CCCl)CCCl)NCCCO1 (centres undefined) [Cyclophosphamide] ... 0
CO[C@H]1C[C@@H]2CC[C@@H](C)[C@@](O)(O2)C(=O)C(=O)N2CCCC[C@H]2C(=O)O[C@H]([C@H](C)C[C@@H]2CC[C@@H](OP(C)(C)=O)[C@H](OC)C2)CC(=O)[C@H](C)/C=C(\C)[C@@H](O)[C@@H](OC)C(=O)[C@H](C)C[C@H](C)/C=C/C=C/C=C/1C ... 25

Lookup: Any idea what its drug sensitivity score is? The molecule is "O=C(Nc1ccncc1)C(=O)c1cn(Cc2ccc(Cl)cc2)c2ccccc12"
Found: 2.12

Lookup: Any idea what its drug sensitivity score is? The molecule is "Cc1ccc(NC(=O)c2ccc(CN3CCN(C)CC3)cc2)cc1Nc1nc(-c2cccnc2)cs1"
Found: 0

Lookup: Any idea what its drug sensitivity score is? The molecule is "Nc1cc(C(F)(F)F)c(-c2cc(N3CCOCC3)nc(N3CCOCC3)n2)cn1"
Found: 8.55

Lookup: Any idea what its drug sensitivity score is? The molecule is COCC1(CO)C(=O)C2CCN1CC2 (centres undefined)
Found: 0

Lookup: Any idea what its drug sensitivity score is? The molecule is "Cc1[nH]c2ccccc2c1CCNCc1ccc(/C=C/C(=O)NO)cc1"
Found: 22.1

Lookup: Any idea what its drug sensitivity score is? The molecule is "CN(C)CCOc1ccc(/C(=C(/CCCl)c2ccccc2)c2ccccc2)cc1"
Found: 0
